This section presents compounds with their documented bioavailability values.
Test: Pharmacokinetics in SD rats (intravenous injection and oral administration)
Assay type: in vivo
Settings: rat, plasma; male SD rats, oral 2 mg/kg vs intravenous 1 mg/kg; read-out: Bioavailability F
I only need the number, in %, no unit after it.

Study these solved cases before continuing.
Prompt line: Endpoint output: bioavailability of COc1cccc(C(CN)NC(=O)c2cc(-c3ccc4[nH]nc(C)c4c3)ccn2)c1 (stereo not shown) . Value?
Response line: 21

Prompt line: Name the reported bioavailability value associated with the compound Cc1n[nH]c2ccc(-c3cccc(C(=O)NC(CN)c4cccc(F)c4F)c3)cc12 (stereo not shown)
Response line: 11

Prompt line: Quick check: bioavailability of COc1cccc(C(CO)NC(=O)c2cccc(-c3ccc4[nH]nc(F)c4c3)c2)c1 (stereo not shown) ?
Response line: 51

Prompt line: Query (compound): Cc1cccc(C(CN)NC(=O)c2cccc(-c3ccc4[nH]nc(C)c4c3)c2)c1 (stereo not shown) ; field requested: bioavailability
Response line: 21

Prompt line: Which bioavailability reading was recorded for the compound COc1cccc(C(CNS(C)(=O)=O)NC(=O)c2cccc(-c3ccc4[nH]nc(C)c4c3)c2)c1 (stereo not shown) ?
Response line: 11

Next:
Prompt line: Sample COc1cccc(C(CN(C)C)NC(=O)c2cccc(-c3ccc4[nH]nc(C)c4c3)c2)c1 (stereo not shown) — what was its bioavailability?
Response line: 10

Prompt line: What does the data say about its bioavailability? Entry: CNCC(NC(=O)c1cc(-c2ccc3[nH]nc(C)c3c2)ccn1)c1cccc(OC)c1 (stereo not shown)
Response line: 20.9

Prompt line: Given COc1cccc(C(CO)NC(=O)c2cccc(-c3ccc4[nH]nc(C)c4c3)c2)c1 (stereo not shown) , state its recorded bioavailability.
Response line: 45

Prompt line: Given COc1cccc(C(CN)NC(=O)c2cc(-c3ccc4[nH]nc(C)c4c3)ccc2OC(F)(F)F)c1 (stereo not shown) , state its recorded bioavailability.
Response line: 60

Prompt line: Dear colleague, I am looking for the recorded bioavailability of the following compound: COc1cccc(C(NC(=O)c2cccc(-c3ccc4[nH]nc(C)c4c3)c2)C(C)(C)N)c1 (stereo not shown)
Response line: 12
